Data origin: PubChem BioAssay (NCI)

# Test system: COLO 205 colon
# PROCEDURE SUMMARY: NCI-60 one-dose screen, 48 h
# CONDITION SET: 10 µM unless noted
About 83,000 compounds went through this panel and 20% of them were active in at least one assay; those are over-represented in the sample as a whole. Active and inactive are the calls of the source. How the source made its calls: active means growth percent below 10; inactive means the rest.
Please reply with one of these outcomes: t (active), f (inactive)

[
  {
    "COMPOUND": "C=CCOc1cccc(/C=C/C(=O)c2sc(Nc3cccnc3)nc2C)c1",
    "EXPERIMENTAL SYSTEM": "COLO 205 colon",
    "DISCRETE LABEL": "f"
  }
]

Enquiry: Each compound tested received a call. Report the one for `O=C(/C=C/c1ccccc1)n1c(-c2ccc(Cl)cc2)nc2ccccc21` .
Return: t

Enquiry: Same question, `COc1ccc(NC(=O)CSc2nc3ccccc3c(=O)n2-c2ccccc2C(F)(F)F)c(OC)c1OC` this time
Return: f

Enquiry: Next compound up: `Cc1cc(C(=O)CSc2nc3ccccc3c(=O)[nH]2)c(C)n1C`
Return: f

Enquiry: Would you kindly repeat that for `Cc1c(C(=O)NCc2ccccc2)[n+](=O)c2cc(F)ccc2n1[O-]` ?
Return: f

Enquiry: Next up: `CC(=O)c1cc(C(=O)c2ccc3c(c2)Sc2ccccc2N3)c2cc(C)ccn12`
Return: t

Enquiry: Please answer likewise for `CC(C)(C)c1cn2cccc(C(=O)N3CCN(CC(=O)Nc4ccc(Cl)cc4C(=O)c4ccccc4Cl)CC3)c2n1`
Return: f

Enquiry: Queued: CCCCNC(=O)NS(=O)(=O)c1ccc(N2N=C(c3ccc(C)cc3C)CC2c2ccc(OC)cc2)cc1 (stereo not drawn)
Return: f

Enquiry: # repeat for `COc1cc(Cn2c(SCCC(=O)Nc3ccc(F)cc3)nc3ccccc3c2=O)cc(OC)c1OC`
Return: f

Enquiry: What do you have for `O=C1OC(c2ccccc2)=N/C1=C\c1ccc([N+](=O)[O-])cc1` ?
Return: f

----------
# Tested on: SF-539 CNS
# PROCEDURE SUMMARY: NCI-60 one-dose screen, 48 h (100 = growth as untreated, 0 = no growth, -100 = all killed)
# CONDITION SET: 10 µM unless noted
About 83,000 compounds went through this panel and 20% of them were active in at least one assay; those are over-represented in the sample as a whole.
QUANTITY: growth (%)
I only need the number, in %, no unit after it.

[
  {
    "COMPOUND": "C/C(=C\\c1csc(C)n1)[C@@H]1C[C@@H]2O[C@]2(C)CCC[C@H](C)[C@H](O)[C@@H](C)C(=O)C(C)(C)[C@@H](O)CC(=O)N1",
    "RECORDED RESULT": -87.4
  },
  {
    "COMPOUND": "CCN(C(=O)c1cc2ccccc2[nH]1)[C@H]1CCC[C@@H](NCc2ccc(OC)cc2)C1",
    "RECORDED RESULT": 104
  },
  {
    "COMPOUND": "COc1ccccc1CNCCCN1C(=O)c2ccc3c4c(ccc(c24)C1=O)C(=O)N(CCCNCCCCNCCCCN)C3=O",
    "RECORDED RESULT": 11
  },
  {
    "COMPOUND": "Oc1ccc(Cl)cc1-c1cc(-c2ccc(Cl)cc2)n[nH]1",
    "RECORDED RESULT": 91.9
  },
  {
    "COMPOUND": "CC(=O)Nc1ccc(S(=O)(=O)N2C(=O)CCC2C(=O)Nc2ccccc2)cc1 (configuration not stated)",
    "RECORDED RESULT": -22
  }
]

Enquiry: Which growth value is on record for Cc1ccc2c(c1)ncn2-c1ncnc2c1CC(C)c1ccccc1N2C (configuration not stated) ?
Return: 4.79

Enquiry: Same question for COc1cc(/C=C2\CCCC3=C2NC(C)=NC3c2cc(OC)c(OC)c(OC)c2)cc(OC)c1OC (configuration not stated) please.
Return: 13.5

Enquiry: // repeat for `O=C(N/N=C/c1c(Cl)cccc1Cl)c1ccccc1Nc1ccnc(C(F)(F)F)c1` and report
Return: 86.6

Enquiry: Next: `COc1cc(OC)c(C(=O)/C=C/c2ccc(C(F)(F)F)cc2)c(OC)c1`
Return: 68.7

----------
# System: OVCAR-3 ovarian
# PROCEDURE SUMMARY: NCI-60 one-dose screen, 48 h (100 = growth as untreated, 0 = no growth, -100 = all killed)
# CONDITION SET: 10 µM unless noted
Compounds without any hit were thinned out: in the full panel of roughly 83,000, 20% have a hit.
Decision: growth beneath 90% gives YES; growth meeting or exceeding 90% gives NO.

Study these solved cases before continuing.
[
  {
    "COMPOUND": "COc1ccc(/C=C/C(=O)c2ccc(B(O)O)cc2)cc1O",
    "DISCRETE LABEL": "YES"
  },
  {
    "COMPOUND": "Cc1ccc(Cn2c(-c3nonc3N)nc3ccccc32)cc1",
    "DISCRETE LABEL": "YES"
  },
  {
    "COMPOUND": "NC(CC(N)C(=O)O)C(=O)O (stereo not drawn)",
    "DISCRETE LABEL": "NO"
  },
  {
    "COMPOUND": "c1ccn2nnnc2c1",
    "DISCRETE LABEL": "YES"
  },
  {
    "COMPOUND": "COc1cc2nc(Cl)nc(NCCO)c2cc1OC",
    "DISCRETE LABEL": "NO"
  }
]

Enquiry: Problem: For the compound `Cc1sc2nc(CSc3nnc(-c4ccco4)o3)[nH]c(=O)c2c1C` , is growth under 90%?
Return: NO

Enquiry: Next up: `COc1cc2nc(SCc3cc(OC)c(OC)c(OC)c3)n(Cc3ccccc3)c(=O)c2cc1OC`
Return: YES

Enquiry: One more compound: `O=S(=O)(NCCCNc1nccc(-c2c(-c3ccc(O)cc3)nc3sccn23)n1)c1ccc(F)cc1`
Return: YES

Enquiry: Moving on to the next compound: `C=C1C(=O)O[C@H]2[C@H]1CC/C(Cn1cc(-c3ccc(N)cc3)nn1)=C\CC[C@@]1(C)O[C@@H]21`
Return: YES

Enquiry: // same read-out, input: `COc1cccc(/C=C2\SC(N3CCN(c4ccccn4)CC3)=NC2=O)c1`
Return: NO

Enquiry: Check O=C(c1c[nH]c2ccccc12)C(Sc1nc2ccccc2c(=O)[nH]1)c1ccccc1 (stereo not drawn) too.
Return: NO

Enquiry: Lookup CCN1C(=O)N(CC)C2C1NN=c1s/c(=C\c3ccccn3)c(=O)n12 (stereo not drawn)
Return: YES

----------
Reported growth values for a set of molecules
# Test system: SF-268 CNS
# PROCEDURE SUMMARY: NCI-60 one-dose screen, 48 h (100 = growth as untreated, 0 = no growth, -100 = all killed)
# CONDITION SET: 10 µM unless noted
# Description: Cells are grown in 96 well plates and exposed to the test compound for 48 hours. Compounds are tested at a single concentration, which is 10^-5 M for most compounds. The reported endpoint is percent growth (GI% or GIPRCNT), where numbers from 0 - 100% represent growth inhibition, and numbers from -100% - 0 represent cell death. For example, a value of 40 represents 60% growth inhibition. A value of 0 means no net growth occurred over the course of the experiment. […]
This is part of a sample that, as a whole, favours compounds with a hit. Of some 83,000 tested, about 20% had one in any assay. Calls of active or inactive are those of the source. The calls were made as follows: active = growth percent below 10; inactive = the rest.

[
  {
    "MOLECULE": "Cc1ccc2nc(SCn3nnc4ccccc4c3=O)[nH]c2c1",
    "growth": "111% (inactive)"
  }
]

Enquiry: Please report the recorded growth for `O=c1c2cccc3c(Nc4ccc(F)cc4)ccc(c32)c2nc3ccccc3n12` .
Return: 95.3% (inactive)

Enquiry: `CC(C)(C)c1cc(-c2nc3ccc(N4CCN(CCO)CC4)cc3[nH]2)cc(C(C)(C)C)c1O` ?
Return: 68.3% (inactive)

Enquiry: Check `COc1ccc(NC(=O)CSc2nc3ccccc3c(=O)n2-c2ccccc2C(F)(F)F)c(OC)c1OC` too.
Return: 100% (inactive)

Enquiry: // query: `O=C(Nc1cccc(Cl)c1)c1cc([N+](=O)[O-])ccc1O`
Return: 65% (inactive)

Enquiry: Repeat for the following molecule: C/C1=C\CCC2(C)OC2CC2CCC(C)(O)C(CC1)C2(C)C (centres undefined)
Return: 103% (inactive)

Enquiry: Similarly, CC(=O)Nc1ccc(S(=O)(=O)N2C(=O)CCC2C(=O)Nc2ccccc2)cc1 (centres undefined) ?
Return: 61.9% (inactive)

Enquiry: What about `NC(=S)NN=C1CCCCC1` ?
Return: 93.5% (inactive)

Enquiry: Do the same for Nc1c(C(=O)Nc2cccc(C(F)(F)F)c2)sc2nc3c(cc12)C(O)CCC3 (centres undefined) please
Return: 45.6% (inactive)

Enquiry: Entry to check: CC(Br)C(OC(=O)c1ccccc1Cl)c1cc2c(cc1Br)OCO2 (centres undefined)
Return: 86.1% (inactive)

Enquiry: Entry to check: `COC(=O)CC/C(C)=N\Nc1ccc([N+](=O)[O-])cc1`
Return: 72.4% (inactive)

Enquiry: Next molecule up: `COc1cc2nc(N3CCC[C@@H](NC4=CC(=O)c5ccccc5C4=O)C3)nc(N)c2cc1OC`
Return: -47.4% (active)

Enquiry: What do you get for CCN1C(=O)N(CC)C2C1NN=c1s/c(=C\c3cccc(F)c3)c(=O)n12 (centres undefined) ?
Return: 58.3% (inactive)
